system: OVCAR-4 ovarian; test: NCI tumour cell line growth inhibition, 48 h
Each record here notes measured TGI.
Observable: TGI

Compound	Observable	Assay result
CS(=O)(=O)OCc1c(O)c2c(c(O)c1COS(C)(=O)=O)C(=O)C=CC2=O	TGI	> 100 µM
O=C(CC1(O)C(=O)Nc2c(Cl)ccc(Cl)c21)c1ccc(C2CC2)cc1 (centres undefined)	TGI	32.2 µM
N#Cc1ccccc1Nc1ccccc1S	TGI	> 100 µM
CCOc1ccc(NC(=O)CCC(=O)NN)cc1	TGI	> 100 µM
O=c1[nH]c2c(O)cccc2c2cc3c(c(O)c12)OCO3	TGI	43.6 µM
COC(=O)CCc1ccc2c(c1)CC1(C2)Cc2ccc3c(c2C1)CCC3 (centres undefined)	TGI	> 100 µM
CCOc1cc(/C=N\NC(=O)N/N=C/c2ccc(O)c(OCC)c2)ccc1O	TGI	> 100 µM
COc1cc(/C=C/C(=O)c2ccc(Nc3nc(Nc4ccccc4)nc(Nc4ccc(Cl)cc4)n3)cc2)cc(OC)c1OC	TGI	> 32.5 µM
CCOC(=O)C1CC/C(=C(/C#N)C(=O)OC)N1 (centres undefined)	TGI	> 100 µM
CC[O-].CC[O-].O=C([CH-]C(=O)c1ccccc1)c1ccccc1.O=C([CH-]C(=O)c1ccccc1)c1ccccc1.[Ti+4]	TGI	> 100 µM
CCOC(=O)C(Cc1cn(S(=O)(=O)c2ccc(C)cc2)cn1)P(=O)(OCC)OCC (centres undefined)	TGI	> 100 µM
O=C1c2ccccc2C(=O)c2c(NC(=O)c3ccc4c5c(ncnc35)-c3ccccc3C4=O)cccc21	TGI	> 100 µM
CCOC(=O)CCC(NC(=O)c1ccc(Oc2nc3ccccc3nc2C(=O)OCC)cc1)C(=O)OCC (centres undefined)	TGI	> 100 µM
N#CC(c1ccccc1)(c1ccccc1)[C@@H](c1ccccc1)[C@H](Cc1ccccc1)NS(=O)(=O)c1ccccc1	TGI	> 100 µM
CC12OC3CC(O1)C1(C=O)C4CCC5(C)C(c6ccc(=O)oc6)CCC5(O)C4CCC1(C3)O2 (centres undefined)	TGI	0.308 µM
O=C1c2cccc3cc([N+](=O)[O-])cc(c23)C(=O)N1O	TGI	> 100 µM
C=C(C)[C@@H]1CC[C@]2(C)[C@H](C=CC3=C4C[C@@](C)(CO)CC[C@]4(C)CC[C@]32C)[C@@]1(C)CCCN	TGI	3.09 µM
Oc1[nH]c2ccc(Cl)cc2c1/C=c1/ccc2c(c1)N=C(c1cc(F)cc(F)c1)N=2	TGI	> 100 µM
CC(C)NC(=O)O/N=C1\CCC2[C@@H]3CC=C4C[C@@H](OC(=O)NC(C)C)CC[C@]4(C)C3CC[C@]12C (some centres undefined)	TGI	3.5 µM

----------
compounds and their reported TGI
tested on: CAKI-1 renal; assay: NCI tumour cell line growth inhibition, 48 h
Observable: TGI (µM)

Compound	Reading qualifier	Assay result
O=P1(O)c2ccccc2CS(=O)(=O)Cc2ccccc21	>	100
COc1cc2c3c(c1O)C1(C=CC(=O)C=C1)CC3N(C)CC2 (stereo not drawn)	=	35.5
CS(=O)(=O)c1nc(Cl)c(Cl)c(C#N)c1Cl	=	1.69

----------
tested on: M19-MEL melanoma; assay: NCI tumour cell line growth inhibition, 48 h

Molecule	TGI
O=[N+]([O-])c1cc(/C=N/NS(=O)(=O)c2ccc(F)cc2)c(O)c([N+](=O)[O-])c1	> 100 µM
CCOC(=O)c1c(C(F)(F)F)oc2c1ccc1nc3nonc3nc12	38.2 µM
Cn1c(N)c(-c2c3ccccc3nc3ccccc23)c(=O)n(C)c1=O	> 100 µM
CC1=NN(c2ccccc2)C(=O)C1N=Nc1ccc(Br)c(C)c1 (stereo not given)	> 100 µM
CCOC(=O)C1CC/C(=C(/C#N)C(=O)OC)N1 (stereo not given)	> 100 µM
